The following are reported IC50 results, target or system Tyrosine-protein kinase ABL1 (Homo sapiens).
Numeric only. Scale: µM

N#Cc1c(N)nc(SCC(=O)c2ccccc2)c(C#N)c1-c1ccsc1	0.29
N#Cc1c(N)nc(SCC(=O)c2ccc(Cl)cc2)c(C#N)c1-c1ccsc1	60

Form field IC50 for item `N#Cc1c(SCc2ccc(F)cc2)nc2c(c1-c1cccs1)CCCC2` on Tyrosine-protein kinase ABL1 (Homo sapiens): 74

###

Listed here: items and their measured IC50.
# test.summary: cells
# condition.description: Homo sapiens, LS174T
# Description: Antiproliferative activity against human RET deficient LS 174T cells after 72 hrs by [3H]thymidine incorporation assay
Numeric only. Scale: µM

N#Cc1c(SCc2ccccc2)nc2c(c1-c1cccs1)CCCC2	6.2

Moving on to the next compound.
Sample `N#Cc1c(N)nc(SCC(=O)c2ccc(Cl)cc2)c(C#N)c1-c1ccsc1` ; IC50 observed: 92

###

Listed here: items and their measured IC50.
# test.summary: cells
# condition.description: Homo sapiens, LS174T

N#Cc1c(N)nc(SCC(=O)c2ccccc2)c(C#N)c1-c1ccsc1	> 300 µM
N#Cc1c(SCC(=O)c2ccccc2)nc2c(c1-c1ccsc1)CCCC2	> 300 µM

Sample `N#Cc1c(SCc2ccc(F)cc2)nc2c(c1-c1cccs1)CCCC2` ; IC50 observed: > 300 µM
